- Target system: SIRT1 (Homo sapiens)
- Sequence (Q96EB6 1-747): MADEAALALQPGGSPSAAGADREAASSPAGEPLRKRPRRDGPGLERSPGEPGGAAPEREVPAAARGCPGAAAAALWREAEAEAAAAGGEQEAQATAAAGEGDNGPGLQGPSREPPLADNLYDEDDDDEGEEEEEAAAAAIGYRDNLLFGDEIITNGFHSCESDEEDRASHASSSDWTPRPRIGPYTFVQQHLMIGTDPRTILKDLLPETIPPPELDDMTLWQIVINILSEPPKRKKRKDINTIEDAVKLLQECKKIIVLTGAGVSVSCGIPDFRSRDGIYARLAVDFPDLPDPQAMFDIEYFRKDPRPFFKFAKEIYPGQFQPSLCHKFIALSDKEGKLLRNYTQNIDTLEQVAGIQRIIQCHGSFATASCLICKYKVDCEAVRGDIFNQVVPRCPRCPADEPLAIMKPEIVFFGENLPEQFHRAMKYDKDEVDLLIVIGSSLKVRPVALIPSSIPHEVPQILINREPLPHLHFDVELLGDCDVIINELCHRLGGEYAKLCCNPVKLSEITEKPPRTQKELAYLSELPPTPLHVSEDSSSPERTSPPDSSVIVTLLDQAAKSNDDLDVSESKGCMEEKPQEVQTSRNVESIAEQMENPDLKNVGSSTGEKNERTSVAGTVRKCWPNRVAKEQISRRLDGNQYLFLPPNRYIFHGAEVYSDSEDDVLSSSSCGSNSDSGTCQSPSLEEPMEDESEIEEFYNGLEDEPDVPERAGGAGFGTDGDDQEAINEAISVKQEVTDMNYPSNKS
- Protocol notes: Trp mass spectrometry assay (SIRT1 activation)
- Format: biochemical
- Stated conditions: Trp mass spectrometry assay; EC1.5 = concentration of test compound that results in 150% activation of SIRT1
Measure: Tryp AVG EC1.5 (μM)

Guide cases for Tryp AVG EC1.5 (μM), answers given:
{"columns": ["Compound", "Target system", "Measure", "Result"],
 "data": [
  ["O=C(Nc1ccncc1F)N1c2nc(-c3ccnc(C(F)(F)F)c3)ccc2N2CC[C@H]1C2", "SIRT1 (Homo sapiens)", "Tryp AVG EC1.5 (μM)", "A (EC1.5<1 μM)"],
  ["O=C(Nc1cncc(F)c1)N1c2nc(-c3cccc(OC(F)(F)F)c3)ccc2N2CC[C@H]1C2", "SIRT1 (Homo sapiens)", "Tryp AVG EC1.5 (μM)", "A (EC1.5<1 μM)"],
  ["O=C(Nc1cncc(F)c1)N1c2nc(C3CCCC(C(F)(F)F)C3)ccc2N2CC[C@H]1C2 (stereo partly shown)", "SIRT1 (Homo sapiens)", "Tryp AVG EC1.5 (μM)", "A (EC1.5<1 μM)"],
  ["COc1cc(NC(=O)N2c3nc(-c4cccc(C(F)(F)F)c4)ccc3N3CCC2CC3)ncn1", "SIRT1 (Homo sapiens)", "Tryp AVG EC1.5 (μM)", "A (EC1.5<1 μM)"],
  ["Cc1cc(C)nc(NC(=O)N2c3nc(N4CCCC(C(F)(F)F)C4)ccc3N3CC[C@H]2C3)c1 (stereo partly shown)", "SIRT1 (Homo sapiens)", "Tryp AVG EC1.5 (μM)", "B (EC1.5 1-25 μM)"],
  ["O=C(Nc1ccnnc1)N1c2nc(-c3cccc(Cl)c3)ccc2N2CC[C@H]1C2", "SIRT1 (Homo sapiens)", "Tryp AVG EC1.5 (μM)", "A (EC1.5<1 μM)"],
  ["COc1nccc(NC(=O)N2c3nc(-c4cccc(N5CCCC5)c4)ccc3N3CC[C@H]2C3)n1", "SIRT1 (Homo sapiens)", "Tryp AVG EC1.5 (μM)", "B (EC1.5 1-25 μM)"],
  ["Cn1ccc(NC(=O)N2c3nc(-c4cccc(OC(F)(F)F)c4)ccc3N3CC[C@H]2C3)n1", "SIRT1 (Homo sapiens)", "Tryp AVG EC1.5 (μM)", "A (EC1.5<1 μM)"],
  ["O=C(Nc1ccc(F)cn1)N1c2nc(-c3ccnc(C(F)(F)F)c3)ccc2N2CC[C@H]1C2", "SIRT1 (Homo sapiens)", "Tryp AVG EC1.5 (μM)", "A (EC1.5<1 μM)"],
  ["O=C(Nc1ccncc1F)N1c2nc(-c3cccc(OC(F)(F)F)c3)ccc2N2CC[C@H]1C2", "SIRT1 (Homo sapiens)", "Tryp AVG EC1.5 (μM)", "A (EC1.5<1 μM)"]
]}

Sure, the documented Tryp AVG EC1.5 (μM) for O=C(Nc1cccnc1)N1c2nc(-c3cccc(OC(F)(F)F)c3)ccc2N2CC[C@H]1C2 is A (EC1.5<1 μM)

Sure, the documented Tryp AVG EC1.5 (μM) for O=C(Nc1ccncn1)N1c2nc(-c3cccc(Cl)c3)ccc2N2CC[C@H]1C2 is A (EC1.5<1 μM)

Sure, the documented Tryp AVG EC1.5 (μM) for COc1cc(NC(=O)N2c3nc(-c4cccc(OC[C@@H](O)CO)c4)ccc3N3CC[C@H]2C3)ncn1 is A (EC1.5<1 μM)

Sure, the documented Tryp AVG EC1.5 (μM) for COc1cc(-c2cccc(C(F)(F)F)c2)nc2c1N1CC[C@@H](C1)N2C(=O)Nc1ccccn1 is A (EC1.5<1 μM)

Sure, the documented Tryp AVG EC1.5 (μM) for O=C(Nc1ccncc1F)N1c2nc(C3CCCC(C(F)(F)F)C3)ccc2N2CC[C@H]1C2 (stereo partly shown) is B (EC1.5 1-25 μM)
